Tested on: S180 ascites
EXPERIMENT: Anti-Tumor Screening; S180 ascites in mice (% increase in life span, survivors)
Assay type: in vivo, female CFW Swiss mice
COND: 40 mg/kg
READOUT NAME: Survivors

Solved entries (count: 4):
# COMPOUND, READOUT NAME, RESULT
data = [
    ("O=C([O-])CC(=O)[O-].O=C([O-])CC(=O)[O-].[K+].[K+].[Pd+2] [K2 [Pd(Malonate)2]]", "Survivors", "0 of 6"),
    ("CCC(C(=O)[O-])C(=O)[O-].CCC(C(=O)[O-])C(=O)[O-].[K+].[K+].[Pd+2]", "Survivors", "0 of 6"),
    ("O=C([O-])C(=O)C(=O)[O-].O=C([O-])C(=O)C(=O)[O-].[K+].[K+].[Pd+2] [Example 2, Potassium Bis(Ketomalonato)palladate(II)]", "Survivors", "0 of 6"),
    ("CC(C)(C(=O)[O-])C(=O)[O-].CC(C)(C(=O)[O-])C(=O)[O-].[K+].[K+].[Pd+2]", "Survivors", "0 of 6"),
]

For the next question, use this compound.
[Q] GET /values?readout=Survivors&item= O=C([O-])C1(C(=O)[O-])CCC1.O=C([O-])C1(C(=O)[O-])CCC1.[K+].[K+].[Pd+2]
[A] 0 of 6

---

System: S 180 Ascites
EXPERIMENT: effective dose (ED90) and therapeutic index, S 180 ascites, method of Miller and Taiter
Assay type: in vivo, mice
COND: LD50/ED90
Procedure: The effective dose (ED90), lethal dose (LD50) and therapeutic index (TI) were determined via the method of Miller and Taiter (Reported by R. A. Turner, "Screening Methods in Pharmacology", Academic Press, New York, pages 61-62 (1965)). In this study Ed90 represents the dose which causes a 50% increase in life span (ILS) in 90% of the test animals (mice) determined graphically. The LD50 value represents the lethal dose to 50% of said animals (Therapeutic Index=LD50 /Ed90).
READOUT NAME: Therapeutic Index
Form field (numeric): enter value without unit.

Please review the entries below; each comes with its answer.
# COMPOUND, ASSAYED TARGET, Therapeutic Index
measured = [
    ("O=C([O-])C1(C(=O)[O-])CCC1.O=C([O-])C1(C(=O)[O-])CCC1.[K+].[K+].[Pd+2] [Example 6]", "S 180 Ascites", 1.1),
    ("CC(C(=O)[O-])C(=O)[O-].CC(C(=O)[O-])C(=O)[O-].[K+].[K+].[Pd+2] [Example 3]", "S 180 Ascites", 1.1),
    ("O=C([O-])c1ccccc1C(=O)[O-].O=C([O-])c1ccccc1C(=O)[O-].[K+].[K+].[Pd+2] [Example 5, Potassium Bis(phthalato)palladate(II)]", "S 180 Ascites", 2.3),
    ("O=C([O-])C(O)C(=O)[O-].O=C([O-])C(O)C(=O)[O-].[K+].[K+].[Pd+2] [Example 4, Potassium Bis(Tartronato)palladate(II)]", "S 180 Ascites", 2.1),
    ("CCC(C(=O)[O-])C(=O)[O-].CCC(C(=O)[O-])C(=O)[O-].[K+].[K+].[Pd+2] [Example 1]", "S 180 Ascites", 2.1),
]

Now take the following compound into account.
[Q] For the compound O=C([O-])C(=O)C(=O)[O-].O=C([O-])C(=O)C(=O)[O-].[K+].[K+].[Pd+2] [Example 2, Potassium Bis(Ketomalonato)palladate(II)] , what Therapeutic Index is on record?
[A] 2.0
